The following variants are listed with their measured polymerase ribozyme fitness (log ratio) values.
B1: TPR 5TU (parent)
chain: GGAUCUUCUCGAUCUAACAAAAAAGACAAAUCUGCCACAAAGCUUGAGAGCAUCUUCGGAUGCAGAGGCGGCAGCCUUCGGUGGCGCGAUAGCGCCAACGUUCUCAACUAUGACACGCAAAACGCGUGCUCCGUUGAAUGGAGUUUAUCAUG

variants of: B1; assay: polymerase ribozyme fitness, log enrichment relative to wild type (log ratio); higher = more active; in vitro selection for triplet polymerase activity
Variants at the floor of the assay were thinned out.
readout.name: polymerase ribozyme fitness (log ratio)

In [3]: df
Out[3]:
                                     changes                             readout_name  value_comparator  measured_result
 0                U55A C72A C99U G126A U139C  polymerase ribozyme fitness (log ratio)                 ≤             -4.2
 1             U6G U44G A47U U53C A64C C103A  polymerase ribozyme fitness (log ratio)                 ≤             -4.2
 2  U33G G46C G71A U78G U90G A110C U127C G141C  polymerase ribozyme fitness (log ratio)                 ≤             -4.2
 3                      G86U C87A C95A U104A  polymerase ribozyme fitness (log ratio)                 ≤             -4.2
 4                                     G140U  polymerase ribozyme fitness (log ratio)                 =            -2.62
 5                          C36U G128C G140U  polymerase ribozyme fitness (log ratio)                 ≤             -4.2
 6  A21G U33G A52C U61G A64G U78G C95A A106G A142G  polymerase ribozyme fitness (log ratio)                 ≤             -4.2
 7                           C76U C87G C125G  polymerase ribozyme fitness (log ratio)                 ≤             -4.2
 8                      A21C A89C C95U A142G  polymerase ribozyme fitness (log ratio)                 =            -3.16
 9           A19C A22G U31G C38U A107U G117A  polymerase ribozyme fitness (log ratio)                 =            -4.16
10                                C93U U135C  polymerase ribozyme fitness (log ratio)                 =            -2.76
11                                 G71A C96A  polymerase ribozyme fitness (log ratio)                 =            -3.18
12                                U56A U102G  polymerase ribozyme fitness (log ratio)                 =             -2.4
13                A52U G83A U90C A106U U127A  polymerase ribozyme fitness (log ratio)                 ≤             -4.2
14                A41C U56G C76A C118G U134C  polymerase ribozyme fitness (log ratio)                 =            -3.21
15                 A30U A39G A98G C99U C105G  polymerase ribozyme fitness (log ratio)                 ≤             -4.2
16                           C85A G92U G117U  polymerase ribozyme fitness (log ratio)                 =            -2.26
17                     C69A A91C A122U A142C  polymerase ribozyme fitness (log ratio)                 ≤             -4.2
18  C10U C14G A39C A91G C95G C99U C105G A137G  polymerase ribozyme fitness (log ratio)                 ≤             -4.2
19                      A22G C85U C95G U135G  polymerase ribozyme fitness (log ratio)                 =            -3.76
20                     A52U A91U A115G C131U  polymerase ribozyme fitness (log ratio)                 ≤             -4.2
21                            G58U C69G C87G  polymerase ribozyme fitness (log ratio)                 ≤             -4.2
22                                 C51G U56A  polymerase ribozyme fitness (log ratio)                 =            -2.67
23                           C36U G59C C131U  polymerase ribozyme fitness (log ratio)                 =           -0.515
24                           C54A G84A A142C  polymerase ribozyme fitness (log ratio)                 =            -4.19
25        U6A C38U U44A U82G C85U C95A U101G  polymerase ribozyme fitness (log ratio)                 ≤             -4.2
26                A26U G68C G86U C103G A115C  polymerase ribozyme fitness (log ratio)                 ≤             -4.2
27                               C103G A120U  polymerase ribozyme fitness (log ratio)                 =             -1.5
28                                      G67C  polymerase ribozyme fitness (log ratio)                 =            -3.97
29     A16G G80C G81A A97G U102C G136C C149U  polymerase ribozyme fitness (log ratio)                 ≤             -4.2
30                            C38U C54A A60U  polymerase ribozyme fitness (log ratio)                 =            -0.76
31                                A97G C123U  polymerase ribozyme fitness (log ratio)                 =            0.215
32                       G46A C63G G67C C85U  polymerase ribozyme fitness (log ratio)                 ≤             -4.2
33       G48C A49G U55G A66U C85U A97C G126C  polymerase ribozyme fitness (log ratio)                 ≤             -4.2
34                                G50A A142C  polymerase ribozyme fitness (log ratio)                 =            -3.12
35                A39U A47U C96U A122G G124A  polymerase ribozyme fitness (log ratio)                 =            -3.16
36                     U44G A91C G126A G143C  polymerase ribozyme fitness (log ratio)                 ≤             -4.2
37                                     A115G  polymerase ribozyme fitness (log ratio)                 =               -1
38                  C10U U53C U55A G86A G88C  polymerase ribozyme fitness (log ratio)                 ≤             -4.2
39                                 A47C U82A  polymerase ribozyme fitness (log ratio)                 =           -0.366
40                U56G C76U A91G A122U C149G  polymerase ribozyme fitness (log ratio)                 ≤             -4.2
41                G48A G59U G94A C114A C125A  polymerase ribozyme fitness (log ratio)                 ≤             -4.2
42                                  A3U G80U  polymerase ribozyme fitness (log ratio)                 =           -0.722
43                                G92A G124C  polymerase ribozyme fitness (log ratio)                 =            -3.03
44                                      G81A  polymerase ribozyme fitness (log ratio)                 =           -0.305
45                                U55A G117A  polymerase ribozyme fitness (log ratio)                 =           -0.438

Numbers sourced from the RNAGym collection of RNA variant scans (doi:10.1073/pnas.2313332121).
